- Test system: C. albicans ATCC90028
- Assay name: Antifungal activity test, MIC by broth microdilution (CLSI M27-A3)
- Assay type: cell-based
- Experimental context: C. albicans ATCC90028; broth microdilution, 35° C., 24-48 hours, 100% inhibition
Readout name: MIC (µg/mL)
Numbers only here, please. The scale is µg/mL.

Compound	MIC (µg/mL)
C[C@@H]1[C@H](O)[C@@H](C)/C=C/C=C/C=C/C=C/C=C/C=C/C=C/[C@H](O[C@@H]2O[C@H](C)[C@@H](O)[C@H](N)[C@@H]2O)C[C@@H]2O[C@](O)(C[C@@H](O)C[C@@H](O)[C@H](O)CC[C@@H](O)C[C@@H](O)CC(=O)O[C@H]1C)C[C@H](O)[C@H]2NC(=O)NCC(N)=O	0.25
C[C@@H]1[C@H](O)[C@@H](C)/C=C/C=C/C=C/C=C/C=C/C=C/C=C/[C@H](O[C@@H]2O[C@H](C)[C@@H](O)[C@H](N)[C@@H]2O)C[C@@H]2O[C@](O)(C[C@@H](O)C[C@@H](O)[C@H](O)CC[C@@H](O)C[C@@H](O)CC(=O)O[C@H]1C)C[C@H](O)[C@H]2NC(=O)NCC(=O)NC(CO)CO	0.5
C[C@@H]1[C@H](O)[C@@H](C)/C=C/C=C/C=C/C=C/C=C/C=C/C=C/[C@H](O[C@@H]2O[C@H](C)[C@@H](O)[C@H](N)[C@@H]2O)C[C@@H]2O[C@](O)(C[C@@H](O)C[C@@H](O)[C@H](O)CC[C@@H](O)C[C@@H](O)CC(=O)O[C@H]1C)C[C@H](O)[C@H]2NC(=O)NNC(=O)NO	0.25
CC1C=CC=CC=CC=CC=CC=CC=CC(OC2OC(C)C(O)C(N)C2O)CC2OC(O)(CC(O)CC(O)C(O)CCC(O)CC(O)CC(=O)OC(C)C(C)C1O)CC(O)C2NC(=O)NCC(N)CCO (stereo not shown)	0.25
C[C@@H]1[C@H](O)[C@@H](C)/C=C/C=C/C=C/C=C/C=C/C=C/C=C/[C@H](O[C@@H]2O[C@H](C)[C@@H](O)[C@H](N)[C@@H]2O)C[C@@H]2O[C@](O)(C[C@@H](O)C[C@@H](O)[C@H](O)CC[C@@H](O)C[C@@H](O)CC(=O)O[C@H]1C)C[C@H](O)[C@H]2NC(=O)NNC[C@H](O)CO	0.5
C[C@@H]1[C@H](O)[C@@H](C)/C=C/C=C/C=C/C=C/C=C/C=C/C=C/[C@H](O[C@@H]2O[C@H](C)[C@@H](O)[C@H](N)[C@@H]2O)C[C@@H]2O[C@](O)(C[C@@H](O)C[C@@H](O)[C@H](O)CC[C@@H](O)C[C@@H](O)CC(=O)O[C@H]1C)C[C@H](O)[C@H]2NC(=O)NC(CN)CO (stereo partly shown)	0.25

Input: Consider the compound shown here: C[C@@H]1[C@H](O)[C@@H](C)/C=C/C=C/C=C/C=C/C=C/C=C/C=C/[C@H](O[C@@H]2O[C@H](C)[C@@H](O)[C@H](N)[C@@H]2O)C[C@@H]2O[C@](O)(C[C@@H](O)C[C@@H](O)[C@H](O)CC[C@@H](O)C[C@@H](O)CC(=O)O[C@H]1C)C[C@H](O)[C@H]2NC(=O)N1C[C@H](O)CC1C(=O)O (stereo partly shown) What is its recorded MIC?
Output: 0.5

====

- System: C. albicans ATCC90028
- Assay name: Antifungal activity test, MIC by broth microdilution (CLSI M27-A3)
- Assay type: cell-based
- Experimental context: C. albicans ATCC90028; broth microdilution, 35° C., 24-48 hours, 100% inhibition
Readout name: MIC (mg/L)
Reply with just the number (in mg/L).

Solved cases below.
Compound	Test system	Uom	Number
C[C@@H]1[C@H](O)[C@@H](C)/C=C/C=C/C=C/C=C/C=C/C=C/C=C/[C@H](O[C@@H]2O[C@H](C)[C@@H](O)[C@H](N)[C@@H]2O)C[C@@H]2O[C@](O)(C[C@@H](O)C[C@@H](O)[C@H](O)CC[C@@H](O)C[C@@H](O)CC(=O)O[C@H]1C)C[C@H](O)[C@H]2NC(=O)NC1CN(CCO)C1 [I-165]	C. albicans ATCC90028	mg/L	0.25
C[C@@H]1[C@H](O)[C@@H](C)/C=C/C=C/C=C/C=C/C=C/C=C/C=C/[C@H](O[C@@H]2O[C@H](C)[C@@H](O)[C@H](N)[C@@H]2O)C[C@@H]2O[C@](O)(C[C@@H](O)C[C@@H](O)[C@H](O)CC[C@@H](O)C[C@@H](O)CC(=O)O[C@H]1C)C[C@H](O)[C@H]2NC(=O)N(C)O [I-266]	C. albicans ATCC90028	mg/L	0.25
C[C@@H]1[C@H](O)[C@@H](C)/C=C/C=C/C=C/C=C/C=C/C=C/C=C/[C@H](O[C@@H]2O[C@H](C)[C@@H](O)[C@H](N)[C@@H]2O)C[C@@H]2O[C@](O)(C[C@@H](O)C[C@@H](O)[C@H](O)CC[C@@H](O)C[C@@H](O)CC(=O)O[C@H]1C)C[C@H](O)[C@H]2NC(=O)NNC(=O)C[C@H](O)CO [I-237]	C. albicans ATCC90028	mg/L	0.5

Input: Any idea what its MIC is? The compound is C[C@@H]1[C@H](O)[C@@H](C)/C=C/C=C/C=C/C=C/C=C/C=C/C=C/[C@H](O[C@@H]2O[C@H](C)[C@@H](O)[C@H](N)[C@@H]2O)C[C@@H]2O[C@](O)(C[C@@H](O)C[C@@H](O)[C@H](O)CC[C@@H](O)C[C@@H](O)CC(=O)O[C@H]1C)C[C@H](O)[C@H]2NC(=O)NCC1(C(=O)O)CC1 [I-202]
Output: 0.5

====

- Tested on: red blood cells (5% RBC suspension)
- Assay name: Test Example 2-1: in vitro hemolytic activity test (upper limit 50, 80, 100 or 200 μmol/L)
- Format: cell-based
- Experimental context: hemolysis method 100 (upper concentration 100 μmol/L); 5% RBC suspension, 37° C., one hour; read-out: hemolysis IC50
- Method: Nephrotoxic potentials of the compounds of the present invention except the compounds whose X is —N(R^F)—CO—X^1 and X^1 is the group represented by formula (III) and T is —N(R^a5)— were investigated by in vitro hemolytic activity test under the condition, in that, the upper limit was 50 μmol/L, 80 μmol/L, 100 μmol/L, or 200 μmol/L as the required concentration to 50% of hemolysis (IC50). […] Percent hemolysis was calculated by using the followed equation. […]
Recorded IC50 values for a group of compounds are listed next.

Compound	IC50
C[C@@H]1[C@H](O)[C@@H](C)/C=C/C=C/C=C/C=C/C=C/C=C/C=C/[C@H](O[C@@H]2O[C@H](C)[C@@H](O)[C@H](N)[C@@H]2O)C[C@@H]2O[C@](O)(C[C@@H](O)C[C@@H](O)[C@H](O)CC[C@@H](O)C[C@@H](O)CC(=O)O[C@H]1C)C[C@H](O)[C@H]2NC(=O)NCCn1cncn1 [I-9]	> 100 µM
C[C@@H]1[C@H](O)[C@@H](C)/C=C/C=C/C=C/C=C/C=C/C=C/C=C/[C@H](O[C@@H]2O[C@H](C)[C@@H](O)[C@H](NCc3cccnc3N)[C@@H]2O)C[C@@H]2O[C@](O)(C[C@@H](O)C[C@@H](O)[C@H](O)CC[C@@H](O)C[C@@H](O)CC(=O)O[C@H]1C)C[C@H](O)[C@H]2NC(=O)NCCN(C)C [I-328]	> 50 µM

Here is another compound to look at.
Input: Which IC50 is listed for CNC(=O)N[C@H]1[C@@H]2C[C@@H](O[C@@H]3O[C@H](C)[C@@H](O)[C@H](NCc4ccc(N(C)C)cc4)[C@@H]3O)/C=C/C=C/C=C/C=C/C=C/C=C/C=C/[C@H](C)[C@@H](O)[C@@H](C)[C@H](C)OC(=O)C[C@H](O)C[C@H](O)CC[C@@H](O)[C@H](O)C[C@H](O)C[C@](O)(C[C@@H]1O)O2 [I-314] ?
Output: > 80 µM

====

As shown below, each of these molecules has a reported MIC value.
- Tested on: C. albicans ATCC90028
- Assay name: Antifungal activity test, MIC by broth microdilution (CLSI M27-A3)
- Assay type: cell-based
- Experimental context: C. albicans ATCC90028; lowest concentration giving 100% inhibition; 35° C., 24-48 hours
The response must be a number in µg/mL with no trailing unit.

Smiles structure	Uom	MIC
C[C@@H]1[C@H](O)[C@@H](C)/C=C/C=C/C=C/C=C/C=C/C=C/C=C/[C@H](O[C@@H]2O[C@H](C)[C@@H](O)[C@H](NC(=N)N)[C@@H]2O)C[C@@H]2O[C@](O)(C[C@@H](O)C[C@@H](O)[C@H](O)CC[C@@H](O)C[C@@H](O)CC(=O)O[C@H]1C)C[C@H](O)[C@H]2NC(=O)NCC(N)=O	µg/mL	0.5

Input: GET /values?readout=MIC&item= "C[C@@H]1[C@H](O)[C@@H](C)/C=C/C=C/C=C/C=C/C=C/C=C/C=C/[C@H](O[C@@H]2O[C@H](C)[C@@H](O)[C@H](NC(=O)CN(C)C)[C@@H]2O)C[C@@H]2O[C@](O)(C[C@@H](O)C[C@@H](O)[C@H](O)CC[C@@H](O)C[C@@H](O)CC(=O)O[C@H]1C)C[C@H](O)[C@H]2NC(N)=O"
Output: 0.25
